- targetOfAssay: UniProt:Q92731
- Sequence (Q92731 whole entry): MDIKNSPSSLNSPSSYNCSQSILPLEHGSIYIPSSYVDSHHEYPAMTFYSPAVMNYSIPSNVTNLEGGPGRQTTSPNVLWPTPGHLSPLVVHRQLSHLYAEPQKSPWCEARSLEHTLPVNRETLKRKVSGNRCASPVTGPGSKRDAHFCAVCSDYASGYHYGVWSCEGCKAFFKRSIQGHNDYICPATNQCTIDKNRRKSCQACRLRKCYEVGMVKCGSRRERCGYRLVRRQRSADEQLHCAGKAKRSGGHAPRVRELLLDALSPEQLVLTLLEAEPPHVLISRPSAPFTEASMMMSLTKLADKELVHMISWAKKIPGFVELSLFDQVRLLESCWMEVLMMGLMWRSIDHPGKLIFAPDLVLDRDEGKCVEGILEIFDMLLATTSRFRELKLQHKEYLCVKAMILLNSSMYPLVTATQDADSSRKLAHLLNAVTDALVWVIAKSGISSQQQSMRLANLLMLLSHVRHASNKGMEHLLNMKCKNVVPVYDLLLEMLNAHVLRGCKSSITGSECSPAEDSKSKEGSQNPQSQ
resultType: pIC50
Scale: negative log10 of molar concentration, which is what pIC50 denotes.

Worked cases, answers included:
molecule: CC(CN1CCCC2CCCNC21)OCC(=O)N1Nc2cc(O)ccc2C2COc3cc(O)ccc3C21 (stereo not given)
valueObserved: 7.17

molecule: Cc1cc(C(=O)CNc2c(-c3ccc(O)cc3)c(=O)oc3cc(O)ccc23)ccc1OCCN1CCC=C(C(=O)O)C1
valueObserved: 6.99

molecule: O=C(COCN1CCCCC1)CN1Nc2c(c(=O)oc3cc(O)ccc23)-c2ccc(O)cc21
valueObserved: 7.43

molecule: Cc1cc(N2Nc3cc(O)ccc3-c3c2c2ccc(O)cc2oc3=O)ccc1OCCN1CCC=C(C(=O)O)C1
valueObserved: 7.01

Give the value of pIC50 reported for the following: Nc1ccc(-c2c(C(=O)c3ccc(OCCNS(=O)(=O)O)cc3)c3ccc(O)cc3oc2=O)cc1
7.10
